The measurements presented in this section are drawn from ChEMBL document CHEMBL1140244.

Ki values by entry
# target or test system: Carbonic anhydrase 2 (Homo sapiens, UniProt P00918)
The reply should contain only the number, in nM.

Known Ki results, listed for orientation:
[[record]]
smiles_data = "CC1(C)OB(c2ccc(C(=O)Nc3ccc(S(N)(=O)=O)cc3)cc2)OC1(C)C"
reported_result = 5.2

[[record]]
smiles_data = "CC1(C)OB(c2ccc(NC(=S)Nc3ccc(S(N)(=O)=O)cc3)cc2)OC1(C)C"
reported_result = 5.1

[[record]]
smiles_data = "CC1(C)OB(c2ccc(NC(=S)Nc3ccc(S(N)(=O)=O)cc3I)cc2)OC1(C)C"
reported_result = 9.8

[[record]]
smiles_data = "CC1(C)OB(c2ccc(N/C(S)=N/c3ccc(S(N)(=O)=O)cc3Cl)cc2)OC1(C)C"
reported_result = 5


Now consider a different compound.
// Ki lookup, key: CC1(C)OB(c2ccc(NC(=S)Nc3ccc(S(N)(=O)=O)cc3Br)cc2)OC1(C)C
5.1
